These entries and their values trace back to patent US8901138B2.

tested.on: MNK1a (Homo sapiens)
assay.overview: MNK1 in vitro kinase assay (assay 2), Z'-LYTE
Assay type: biochemical
particulars: compound concentration of 1 μM
Quick reference for inhibition at 1 µM among some compounds
Report the value in % with no unit label.

CCS(C)(=O)=Nc1cc(C)c2c(Nc3ccc(F)cc3O[C@H]3CC[C@H](OC)CC3)ncnc2c1 (some centres unmarked); 92

Kindly indicate its recorded inhibition at 1 µM. Item: Cc1cc(N=S(C)(C)=O)cc2ncnc(Nc3ccc(F)cc3O[C@@H]3CCCN(CC(F)(F)F)C3)c12
92

Kindly indicate its recorded inhibition at 1 µM. Item: Cc1cc(N=S(C)(C)=O)cc2ncnc(Nc3ccc(F)cc3O[C@@H]3CO[C@@H]4CCO[C@@H]43)c12
89

Kindly indicate its recorded inhibition at 1 µM. Item: Cc1cc(N=S(C)(C)=O)cc2ncnc(Nc3cccnc3O[C@@H]3CCCN(CC(C)(C)O)C3)c12
91

Kindly indicate its recorded inhibition at 1 µM. Item: CNC(=O)N1CCS(=O)(=Nc2cc(C)c3c(Nc4ccc(F)cc4O[C@H]4CC[C@H](OC)CC4)ncnc3c2)CC1
88

====

tested.on: UniProt Q9BUB5
assay.overview: MNK1 in vitro kinase assay (assay 2), Z'-LYTE
Format: biochemical
particulars: compound concentration of 1 μM
Quick reference for inhibition at 1 µM among some compounds
Just the number plus its unit, please.

Cc1cc(N=S2(=O)CCCC2)cc2ncnc(Nc3ccc(F)cc3O[C@H]3CCOC3)c12; 100%

Kindly indicate its recorded inhibition at 1 µM. Item: Cc1cc(N=S(C)(C)=O)cc2ncnc(Nc3ccc(C#N)nc3OC3CCOCC3)c12
99%

====

Quick reference for inhibition at 1 µM among some compounds
tested.on: MNK1a (Homo sapiens, UniProt Q9BUB5)
Sequence (Q9BUB5 1-424 isoform Q9BUB5-2): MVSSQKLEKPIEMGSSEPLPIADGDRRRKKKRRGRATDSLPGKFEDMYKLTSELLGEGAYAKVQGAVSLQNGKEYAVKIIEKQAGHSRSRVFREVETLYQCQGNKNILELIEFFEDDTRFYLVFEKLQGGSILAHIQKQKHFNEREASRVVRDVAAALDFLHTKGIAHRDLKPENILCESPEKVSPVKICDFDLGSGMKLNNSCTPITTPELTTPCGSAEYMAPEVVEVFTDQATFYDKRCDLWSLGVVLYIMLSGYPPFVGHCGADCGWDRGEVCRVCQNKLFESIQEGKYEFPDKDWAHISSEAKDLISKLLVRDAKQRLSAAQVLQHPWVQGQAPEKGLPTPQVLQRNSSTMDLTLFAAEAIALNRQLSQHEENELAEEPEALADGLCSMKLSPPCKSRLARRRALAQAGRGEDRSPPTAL
assay.overview: MNK1 in vitro kinase assay (assay 2), Z'-LYTE
Format: biochemical
particulars: compound concentration of 1 μM
Report the value in % with no unit label.

Examples with their reported inhibition at 1 µM follow.
Cc1cc(N=S(C)(C)=O)cc2ncnc(Nc3ccccc3OC3CCOCC3)c12 [Example 1.12]; 92
Cc1cc(N=S(C)(C)=O)cc2ncnc(Nc3ccc(F)cc3OC3(C(F)(F)F)CCC3)c12 [Example 1.30]; 89

Kindly consider the entry below.
Please report inhibition at 1 µM with MNK1a (Homo sapiens, UniProt Q9BUB5) for item Cc1cc(N=S(C)(C)=O)cc2ncnc(Nc3cccnc3OC3CCOCC3)c12 [Example 2.6] .
92

====

tested.on: MNK1a (Homo sapiens, UniProt Q9BUB5)
assay.overview: MNK1 in vitro kinase assay (assay 2), Z'-LYTE
Assay type: biochemical
particulars: compound concentration of 1 μM
Quick reference for inhibition at 1 µM among some molecules
Report the value in % with no unit label.

Examples with their reported inhibition at 1 µM follow.
Cc1cc(N=S(C)(C)=O)cc2ncnc(Nc3ccc(F)cc3O[C@@H]3CO[C@H]4[C@@H]3OC[C@H]4OC(C)C)c12; 98
Cc1cc(N=S2(=O)CCOCC2)cc2ncnc(Nc3ccc(F)cc3O[C@@H]3CO[C@H]4[C@@H]3OC[C@H]4O)c12; 95
Cc1cc(N=S(C)(C)=O)cc2ncnc(Nc3ccc(F)cc3O[C@@H]3CO[C@H]4[C@@H]3OC[C@@]4(C)O)c12; 90
CO[C@H]1CC[C@H](Oc2cc(F)ccc2Nc2ncnc3cc(N=S4(=O)CCN(C)CC4)cc(C)c23)CC1; 86
Cc1cc(N=S2(=O)CCCC2)cc2ncnc(Nc3ccc(F)cc3O[C@@H]3CCCNC3)c12; 95
Cc1cc(N=S(C)(=O)C(C)(C)C)cc2ncnc(Nc3ccc(F)cc3O[C@@H]3CO[C@@H]4CCO[C@@H]43)c12 (stereo partly drawn); 99
Cc1cc(N=S(C)(C)=O)cc2ncnc(Nc3ccc(F)cc3O[C@@H]3CO[C@H]4[C@@H]3OC[C@H]4C#N)c12; 88
Cc1cc(N=S(C)(C)=O)cc2ncnc(Nc3ccc(F)nc3O[C@H]3CCOC3)c12; 94
Cc1cc(N=S(C)(C)=O)cc2ncnc(Nc3ccc(F)cc3O[C@H]3C[C@H](N(C)C)C3)c12; 92
Cc1cc(N=S(C)(C)=O)cc2ncnc(Nc3ccc(F)cc3O[C@@H]3CCCNC3)c12; 89

Kindly indicate its recorded inhibition at 1 µM. Item: Cc1cc(N=S(C)(C)=O)cc2ncnc(Nc3ccc(F)cc3O[C@@H]3CCNC3)c12
78

Kindly indicate its recorded inhibition at 1 µM. Item: Cc1cc(N=[S@](C)(=O)c2ccccc2)cc2ncnc(Nc3ccc(F)cc3O[C@H]3CCOC3)c12
71
